These entries and their values trace back to ChEMBL document CHEMBL1128647.

- System: Prostatic carcinoma cell
- PROCEDURE_SUMMARY: Cytotoxic activity against human prostate cancer cell line
- Format: functional
MEASURED_ENDPOINT: GI50

Cc1nc(N)nc(O)c1N1CCN(c2ccc(C(=O)NC(CCC(=O)O)C(=O)O)cc2)CC1 (configuration not stated); > 100 µM

Exam item: If you can, please state the reported GI50 value of `Cc1nc(N)nc(O)c1N1CCN(c2ccc(S(=O)(=O)N(Cc3ccccc3)Cc3ccccc3)cc2)CC1` .
Marked response: 1.9 µM

Exam item: Returns the measured GI50 for the input molecule. Input: `Cc1nc(N)nc(O)c1N1CCN(c2ccc([N+](=O)[O-])cc2)CC1`
Marked response: > 100 µM

* * *

- Test system: Renal cancer cell line
- PROCEDURE_SUMMARY: Cytotoxic activity against human renal cancer cell line
- Assay type: functional
MEASURED_ENDPOINT: GI50

Cc1nc(N)nc(O)c1N1CCN(c2ccc(C(=O)O)cc2)CC1; 1.39 µM

Exam item: Can you look up the measured GI50 of Cc1nc(N)nc(O)c1N1CCN(c2ccc(C(=O)NC(CCC(=O)O)C(=O)O)cc2)CC1 (configuration not stated) for me?
Marked response: > 0.0001 µM

Exam item: Field request: GI50 | item: `Cc1nc(N)nc(O)c1N1CCN(c2ccc(S(N)(=O)=O)cc2)CC1`
Marked response: > 100 µM

Exam item: Fill blank: measured GI50 of the compound `Cc1nc(N)nc(O)c1N1CCN(c2ccc(S(=O)(=O)N(Cc3ccccc3)Cc3ccccc3)cc2)CC1` is ____.
Marked response: 3.1 µM

Exam item: Requested read-out: GI50. Entry: `Cc1nc(N)nc(O)c1N1CCN(c2ccc(C#N)cc2)CC1`
Marked response: > 100 µM

Exam item: Dear colleague, I am looking for the recorded GI50 of the following compound: CCOC(=O)CCC(NC(=O)c1ccc(N2CCN(c3c(C)nc(N)nc3O)CC2)cc1)C(=O)OCC (configuration not stated)
Marked response: > 100 µM

Exam item: For the compound `Cc1nc(N)nc(O)c1N1CCN(c2ccc([N+](=O)[O-])cc2)CC1` , what GI50 is on record?
Marked response: > 100 µM

* * *

- System: Prostatic carcinoma cell
- PROCEDURE_SUMMARY: Cytotoxic activity against human prostate cancer cell line
- Type: functional
MEASURED_ENDPOINT: GI50

Cc1nc(N)nc(O)c1N1CCN(c2ccc(C#N)cc2)CC1; > 0.0001 µM

Exam item: Which GI50 is reported with Prostatic carcinoma cell for this entry: `Cc1nc(N)nc(O)c1N1CCN(c2ccc(C(=O)O)cc2)CC1` ?
Marked response: > 100 µM

Exam item: Recall the recorded GI50 for `Cc1nc(N)nc(O)c1N1CCN(c2ccc(S(N)(=O)=O)cc2)CC1` with Prostatic carcinoma cell and state it.
Marked response: > 100 µM

Exam item: # value lookup — system Prostatic carcinoma cell, readout GI50, item CCOC(=O)CCC(NC(=O)c1ccc(N2CCN(c3c(C)nc(N)nc3O)CC2)cc1)C(=O)OCC (centres undefined)
Marked response: > 100 µM
